Recorded values, source ChEMBL document CHEMBL1139219.

# Test System: Cytochrome P450 3A4 (Homo sapiens)
# Sequence (P08684 whole entry): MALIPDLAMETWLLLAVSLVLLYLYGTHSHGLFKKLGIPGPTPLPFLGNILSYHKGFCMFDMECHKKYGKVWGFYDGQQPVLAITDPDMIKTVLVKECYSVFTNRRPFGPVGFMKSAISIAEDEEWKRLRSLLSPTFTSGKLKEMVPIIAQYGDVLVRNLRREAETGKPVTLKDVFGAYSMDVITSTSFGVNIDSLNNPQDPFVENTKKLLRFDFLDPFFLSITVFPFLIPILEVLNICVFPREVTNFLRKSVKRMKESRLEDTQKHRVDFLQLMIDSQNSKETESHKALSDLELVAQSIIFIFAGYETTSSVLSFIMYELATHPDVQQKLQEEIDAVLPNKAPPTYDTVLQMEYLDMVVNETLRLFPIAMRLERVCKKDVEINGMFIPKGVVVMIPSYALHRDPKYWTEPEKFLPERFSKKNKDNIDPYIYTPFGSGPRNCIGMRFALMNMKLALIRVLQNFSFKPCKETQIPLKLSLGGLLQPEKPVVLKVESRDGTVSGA

Structure	Reading Unit	IC50
Cc1ccc2c(C(=O)O)c(O)c(-c3ccc(Cl)cc3)nc2c1C	µM	7

* * *

# Assay Text: AUC in Sprague-Dawley rat at 1 mg/kg, iv
# Format: ADME, organism-based
# Parameters: dose 1 mg/kg, route intravenous
# Experimental Conditions: plasma
# binarize AUC: threshold 7 µM·h inclusive, high side YES, low side NO

Compound	Group Label
Cc1ccc2c(C(=O)O)c(O)c(-c3ccc(Br)cc3)nc2c1C	NO
O=C(O)c1c(O)c(-c2ccc(Cl)cc2)nc2c(-c3ccccc3)cccc12	NO
Cc1ccc2c(C(=O)O)c(O)c(-c3ccc(Cl)cc3)nc2c1C	YES
CCC(C)c1cccc2c(C(=O)O)c(O)c(-c3ccc(Cl)cc3)nc12 (stereo unspecified)	NO
Cc1ccc2c(C(=O)O)c(O)c(-c3ccc(C(F)(F)F)cc3)nc2c1C	YES
CC(C)c1cccc2c(C(=O)O)c(O)c(-c3ccc(Cl)cc3)nc12	NO

* * *

# Assay Text: Oral bioavailability in rat
# Assay type: ADME, organism-based
# Experimental Conditions: in vivo

Structure	bioavailability [%]
O=C(O)c1c(O)c(-c2ccc(Cl)cc2)nc2c(-c3ccccc3)cccc12	24

* * *

# Assay Text: Clearance in Sprague-Dawley rat at 1 mg/kg, iv
# Format: ADME, organism-based
# Design: dose 1 mg/kg, route intravenous
# Experimental Conditions: in vivo

Compound	clearance
Cc1ccc2c(C(=O)O)c(O)c(-c3ccc(Br)cc3)nc2c1C	6.2 mL/min/kg
Cc1ccc2c(C(=O)O)c(O)c(-c3ccc(Cl)cc3)nc2c1C	6.2 mL/min/kg
CC(C)c1cccc2c(C(=O)O)c(O)c(-c3ccc(Cl)cc3)nc12	6.5 mL/min/kg
Cc1ccc2c(C(=O)O)c(O)c(-c3ccc(C(F)(F)F)cc3)nc2c1C	4.7 mL/min/kg
CCC(C)c1cccc2c(C(=O)O)c(O)c(-c3ccc(Cl)cc3)nc12 (stereo unspecified)	13.3 mL/min/kg
O=C(O)c1c(O)c(-c2ccc(Cl)cc2)nc2c(-c3ccccc3)cccc12	9.1 mL/min/kg
